Attribution: ChEMBL document CHEMBL5537163

- TGT: Bromodomain-containing protein 2 (Homo sapiens, UniProt P25440)
- Sequence (P25440 whole entry): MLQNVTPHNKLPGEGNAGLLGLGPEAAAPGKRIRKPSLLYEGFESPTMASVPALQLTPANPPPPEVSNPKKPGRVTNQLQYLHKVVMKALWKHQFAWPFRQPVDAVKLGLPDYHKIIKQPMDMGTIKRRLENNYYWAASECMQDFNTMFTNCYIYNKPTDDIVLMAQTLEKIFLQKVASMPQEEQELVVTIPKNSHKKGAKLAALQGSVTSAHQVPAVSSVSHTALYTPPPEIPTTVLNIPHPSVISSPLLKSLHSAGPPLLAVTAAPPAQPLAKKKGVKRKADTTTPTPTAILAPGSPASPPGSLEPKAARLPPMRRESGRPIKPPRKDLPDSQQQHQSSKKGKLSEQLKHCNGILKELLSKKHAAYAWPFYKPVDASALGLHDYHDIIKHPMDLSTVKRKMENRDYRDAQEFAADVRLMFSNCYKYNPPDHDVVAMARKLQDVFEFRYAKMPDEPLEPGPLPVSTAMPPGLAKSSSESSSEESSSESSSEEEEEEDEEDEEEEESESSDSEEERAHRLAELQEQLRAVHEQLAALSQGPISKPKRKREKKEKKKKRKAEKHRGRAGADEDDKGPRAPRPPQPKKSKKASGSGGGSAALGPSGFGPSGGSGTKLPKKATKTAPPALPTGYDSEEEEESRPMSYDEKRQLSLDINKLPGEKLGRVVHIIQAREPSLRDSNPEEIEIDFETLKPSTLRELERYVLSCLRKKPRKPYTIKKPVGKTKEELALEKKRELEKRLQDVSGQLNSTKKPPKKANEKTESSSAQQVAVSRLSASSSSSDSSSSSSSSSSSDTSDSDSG
- PROCEDURE_SUMMARY: Inhibition of BRD2 BD2 (unknown origin) using biotinylated tetra-acetylated H4 peptide SGRG-K(Ac)-GG-K(Ac)-GLG-K(Ac)-GGA-K(Ac)-RHRK-Biotin as substrate incubated for 1 hr by TR-FRET assay
MEASURE: IC50 (nM)

Cc1cc(F)cc(C)c1Oc1ccc(C(C)(C)O)cc1-c1cn(C)c(=O)cc1NCC(=O)N1CCOCC1: 11.1

###

- System: MV4-11
- PROCEDURE_SUMMARY: Antiproliferative activity against human MV4-11 cells assessed as inhibition of cell proliferation incubated for 72 hrs by CellTiterGlo luminescence assay
- Type: functional, cell-based
- TEST_CONTEXT: MV4-11, 72 h
pIC50: −log10 of the molar value.
MEASURE: pIC50

CCNC(=O)c1cc2c(-c3cc(C(C)(C)O)ccc3Oc3c(C)cc(F)cc3C)cn(C)c(=O)c2[nH]1: 7.82
